Source of measurements: PubChem BioAssay (NCI)

# TEST DESCRIPTION: NCI Yeast Anticancer Drug Screen. Data for the bub3 strain (AID 167)
# CONDITION PARAMETERS: S. cerevisiae bub3 mutant strain, at 50.0 µM
The panel holds about 79,000 compounds, 15% with a hit somewhere; the sample as a whole holds those more often. Active and inactive are the calls of the source. No stated cut-off is given here; in the data, active means growth inhibition above about 70%; inactive means the rest.
The categories you may choose from are t = active, f = inactive

1. Cn1c(=O)c(-c2ccccc2)c(N=[N+]=[N-])c2ccccc21 ... t

INPUT: Called result for OC(COc1cccc2ccccc12)CN1CCOCC1 (configuration not stated)
OUTPUT: f

INPUT: Called result for CC(=O)SCCC[Si](C)(C)CCCSC(C)=O
OUTPUT: f

INPUT: Called result for Cc1ccc(N)c(S)c1
OUTPUT: t

INPUT: Called result for CC(C)(Br)C(=O)/C=C/c1ccc(Cl)c(Cl)c1
OUTPUT: t

INPUT: Called result for CN(CCc1ccccn1)c1ccc2c(c1)Cc1ccccc1-2
OUTPUT: f

INPUT: Called result for O=C1C=CC(=Nc2ccc3c(c2)Cc2cc(NC(=O)C(F)(F)F)ccc2-3)O1
OUTPUT: t

----------
# TEST DESCRIPTION: NCI Yeast Anticancer Drug Screen. Data for the rad50 strain (AID 155);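 further: 0% = growth of vehicle-only cultures of the same strain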
# CONDITION PARAMETERS: S. cerevisiae rad50 strain growth inhibition; at 33.0 µM; active compounds read high
Compounds without any hit were thinned out: in the full panel of roughly 79,000, 15% have a hit.
// not fulfilled strictly below 40% in growth inhibition; fulfilled otherwise

Some solved cases for reference:
1. NNC(=O)CCc1ccc2ccc3ccccc3c2c1 ... not fulfilled
2. CN(C)c1ccc(Sc2ccc3nc(N)nc(N)c3c2)cc1 ... not fulfilled
3. O=C(NCCCCCCCN1CCCCCCC1)C(C1CCCCC1)C1CCCCC1 ... fulfilled
4. O=C1C2C=CC1C1C(=O)OC(=O)C21 (centres undefined) ... not fulfilled
5. COC(=O)C1=C(C(=O)OC)C2(C)C=CC1O2 (centres undefined) ... fulfilled
6. OCC(Cn1cncn1)(c1ccc(F)cc1F)n1cncn1 (centres undefined) ... fulfilled
7. CCN(CC)CC(O)c1ccc2ccc3ccccc3c2c1 (centres undefined) ... not fulfilled
8. CCN(CC)CCNc1ccc([N+](=O)[O-])c2nc3ccc(OC)cc3c(N)c12 ... fulfilled

INPUT: Is reported growth inhibition greater than or equal to 40% here: c1ccc2c(c1)Oc1cccc3cccc-2c13
OUTPUT: not fulfilled

INPUT: Is reported growth inhibition greater than or equal to 40% here: c1ccc(-c2nc3cccnc3s2)cc1
OUTPUT: not fulfilled

INPUT: Is reported growth inhibition greater than or equal to 40% here: CC(C)c1ccccc1NC(=O)/C(Cl)=C(\Cl)C(=O)O
OUTPUT: not fulfilled

INPUT: Is reported growth inhibition greater than or equal to 40% here: O=C1c2ccccc2C(=O)c2cc(CBr)ccc21
OUTPUT: fulfilled

INPUT: Is reported growth inhibition greater than or equal to 40% here: CCCCCCCCCCC1CCC(=O)O1 (centres undefined)
OUTPUT: not fulfilled

INPUT: Is reported growth inhibition greater than or equal to 40% here: O=C1NC(=O)C2C3C=CC(C3)C12 (centres undefined)
OUTPUT: not fulfilled

----------
# TEST DESCRIPTION: NCI Yeast Anticancer Drug Screen. Data for the bub3 strain (AID 167)
# CONDITION PARAMETERS: S. cerevisiae bub3 mutant strain, at 1.2 µM, active compounds read high
This is part of a sample that, as a whole, favours compounds with a hit. Of some 79,000 tested, about 15% had one in any assay.
MEASUREMENT KIND: growth inhibition (%)
I only need the number, in %, no unit after it.

1. N/C(=N\OC(=O)NC(Cl)=C(Cl)Cl)c1cc(C(F)(F)F)cc(C(F)(F)F)c1 ... -23
2. CC(C)c1ccccc1NC(=O)/C(Cl)=C(\Cl)C(=O)O ... 0
3. COc1cc(C2c3cc4c(cc3OC(NNc3ccccc3)C2C)OCO4)cc(OC)c1OC (stereo unspecified) ... 7
4. Cc1ccc2ccc3cccc4ccc1c2c34 ... -1

INPUT: What does the data say about its growth inhibition? Entry: Nc1nc(-c2cccnc2)cc(-c2cc(-c3cccnc3)nc(N)n2)n1
OUTPUT: 0

INPUT: What does the data say about its growth inhibition? Entry: COc1ccc2nc3c([N+](=O)[O-])ccc(NCCN(C)C)c3c(NCCN(C)C)c2c1
OUTPUT: -3

INPUT: What does the data say about its growth inhibition? Entry: O=C(NCCCCNCCCNC(=O)c1cc(-c2ccccc2)nc2ccccc12)c1cc(-c2ccccc2)nc2ccccc12
OUTPUT: -2

INPUT: What does the data say about its growth inhibition? Entry: CCOC(=O)c1cc([N+](=O)[O-])cc([N+](=O)[O-])c1Sc1ncnc2nc[nH]c12
OUTPUT: -26

INPUT: What does the data say about its growth inhibition? Entry: O=C(c1ccc(Cl)cc1)C1OC12C(=O)Nc1ccccc12 (stereo unspecified)
OUTPUT: 43

INPUT: What does the data say about its growth inhibition? Entry: CCCCCCCCCCNC(=O)OCC
OUTPUT: 2

INPUT: What does the data say about its growth inhibition? Entry: COc1ccc(O)c(/C=N\Nc2ccccc2)c1
OUTPUT: -9

----------
# TEST DESCRIPTION: NCI Yeast Anticancer Drug Screen. Data for the cln2 rad14 strain (AID 165);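 further: 0% = growth equal to vehicle treated cultures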
# CONDITION PARAMETERS: S. cerevisiae cln2 rad14 strain, at 5.0 µM (retest, dose inferred, filed as 0.5)
Compounds without any hit were thinned out: in the full panel of roughly 79,000, 15% have a hit. The source made the active and inactive calls. Cut-off read from the data, not from the text of the source: active = growth inhibition above about 70%; inactive = the rest.
The categories you may choose from are active, inactive

Some solved cases for reference:
1. CN(C)CCOc1ccc2c(c1)C/C(=C/c1ncc([N+](=O)[O-])n1C)C2=O ... inactive
2. C[C@H](CCC(=O)NN)[C@H]1CC[C@H]2[C@@H]3CC[C@@H]4C[C@H](O)CC[C@]4(C)[C@H]3CC[C@]12C ... inactive
3. C[Si](C)(C)CNC(=O)OCc1ccccc1 ... inactive
4. COc1ccc2sc3cccc(NCCN(C)C)c3c(=O)c2c1 ... inactive
5. O=C1c2cc([N+](=O)[O-])ccc2-c2cccc(F)c21 ... inactive
6. CCC(C(=O)O)C1=C(c2ccccc2)CCc2ccccc21 (stereo not given) ... inactive
7. CCOC(=O)c1cnc2cc(C(F)(F)F)ccc2c1N=[N+]=[N-] ... inactive
8. COc1ccc2nc3c([N+](=O)[O-])ccc(NCCN(C)C)c3c(NCCN(C)C)c2c1 ... inactive

INPUT: Called result for O=C1CSC(/C=C/c2ccccc2)N1c1ccc(-c2ccc(-n3c(-c4ccccc4)nc4ccccc4c3=O)cc2)cc1 (stereo not given)
OUTPUT: inactive

INPUT: Called result for Cc1nc(-c2ccccc2)c(-c2ccccc2)s1
OUTPUT: active

INPUT: Called result for O=[N+]([O-])c1ccc(=S)[nH]c1
OUTPUT: inactive

INPUT: Called result for FC(F)(F)c1nc2nc(Cl)c(Cl)nc2n1CCCN1CCOCC1
OUTPUT: inactive

INPUT: Called result for CC[C@@]1(O)C(=O)OCc2c1cc1n(c2=O)Cc2cc3c(CN(C)C)c(O)ccc3nc2-1
OUTPUT: inactive

INPUT: Called result for COc1cc2c3c(cccc3c1)C(=O)N(CCN(C)C)C2=O
OUTPUT: inactive

----------
# TEST DESCRIPTION: NCI Yeast Anticancer Drug Screen. Data for the mec2-1 strain (AID 157)
# CONDITION PARAMETERS: S. cerevisiae mec2-1 strain, at 50.0 µM (retest, dose inferred, filed as 5.0), active compounds read high
This is part of a sample that, as a whole, favours compounds with a hit. Of some 79,000 tested, about 15% had one in any assay.
MEASUREMENT KIND: growth inhibition (%)
I only need the number, in %, no unit after it.

Recorded growth inhibition, per entry:
1. CCC(C)COC(=O)c1ccc(N=Cc2ccc(C=Nc3ccc(C(=O)OCC(C)CC)cc3)cc2)cc1 (configuration not stated) ... 13
2. O=C1c2ccccc2C(=O)c2cc(CBr)ccc21 ... 77
3. COc1cc2ccc(/C=C\[N+](=O)[O-])cc2cc1OC ... 99

Now for a further compound.
INPUT: What does the data say about its growth inhibition? Entry: Nc1ccccc1CC(O)C(=O)O (configuration not stated)
OUTPUT: 74

----------
# TEST DESCRIPTION: NCI Yeast Anticancer Drug Screen. Data for the cln2 rad14 strain (AID 165);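 further: 0% = growth equal to vehicle treated cultures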
# CONDITION PARAMETERS: S. cerevisiae cln2 rad14 strain, at 5.0 µM (retest, dose inferred, filed as 0.5), active compounds read high
Compounds without any hit were thinned out: in the full panel of roughly 79,000, 15% have a hit.
MEASUREMENT KIND: growth inhibition (%)
I only need the number, in %, no unit after it.

1. COc1ccc(/C=C2\SC(=S)N(/C=C/c3nc4ccccc4[nH]c3=O)C2=O)cc1OC ... -30

INPUT: What does the data say about its growth inhibition? Entry: O=C(c1ccc(Cl)cc1Cl)C(Cl)Cl
OUTPUT: 68

INPUT: What does the data say about its growth inhibition? Entry: N#Cc1c(N)[nH]c2ccc(Sc3ccccc3)cc12
OUTPUT: -3

INPUT: What does the data say about its growth inhibition? Entry: O=C(NCCCCCCCN1CCCCCCC1)C(C1CCCCC1)C1CCCCC1
OUTPUT: 62

INPUT: What does the data say about its growth inhibition? Entry: S=C(N/N=C(/c1ccccc1)c1ccccn1)N1CCCCCC1
OUTPUT: 18

INPUT: What does the data say about its growth inhibition? Entry: NC(=S)N/N=C\c1nccc2ccccc12
OUTPUT: -99
